molecular target: FVa (activated factor V) (human, UniProt P12259;P12259 29-737;1574-2224); assay: filter binding
Sequence (P12259 29-737, chain 1 of 2): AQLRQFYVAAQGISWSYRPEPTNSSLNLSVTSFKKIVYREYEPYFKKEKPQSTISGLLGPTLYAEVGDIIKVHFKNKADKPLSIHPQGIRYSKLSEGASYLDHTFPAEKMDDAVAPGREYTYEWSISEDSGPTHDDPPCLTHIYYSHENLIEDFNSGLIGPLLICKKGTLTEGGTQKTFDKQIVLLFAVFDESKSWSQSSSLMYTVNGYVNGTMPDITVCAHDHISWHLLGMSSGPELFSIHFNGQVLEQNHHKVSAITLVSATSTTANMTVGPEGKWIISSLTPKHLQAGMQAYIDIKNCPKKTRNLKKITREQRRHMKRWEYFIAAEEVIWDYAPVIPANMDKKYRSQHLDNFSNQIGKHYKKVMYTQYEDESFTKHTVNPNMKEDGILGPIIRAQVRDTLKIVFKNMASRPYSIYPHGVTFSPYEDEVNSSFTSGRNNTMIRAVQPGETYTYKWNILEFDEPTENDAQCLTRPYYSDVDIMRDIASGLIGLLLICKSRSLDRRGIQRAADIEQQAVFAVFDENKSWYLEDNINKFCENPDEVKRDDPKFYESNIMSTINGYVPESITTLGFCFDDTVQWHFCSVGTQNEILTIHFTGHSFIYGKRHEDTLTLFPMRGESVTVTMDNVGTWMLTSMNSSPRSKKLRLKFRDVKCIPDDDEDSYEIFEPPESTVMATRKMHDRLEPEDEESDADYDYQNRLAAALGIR
Sequence (P12259 1574-2224, chain 2 of 2): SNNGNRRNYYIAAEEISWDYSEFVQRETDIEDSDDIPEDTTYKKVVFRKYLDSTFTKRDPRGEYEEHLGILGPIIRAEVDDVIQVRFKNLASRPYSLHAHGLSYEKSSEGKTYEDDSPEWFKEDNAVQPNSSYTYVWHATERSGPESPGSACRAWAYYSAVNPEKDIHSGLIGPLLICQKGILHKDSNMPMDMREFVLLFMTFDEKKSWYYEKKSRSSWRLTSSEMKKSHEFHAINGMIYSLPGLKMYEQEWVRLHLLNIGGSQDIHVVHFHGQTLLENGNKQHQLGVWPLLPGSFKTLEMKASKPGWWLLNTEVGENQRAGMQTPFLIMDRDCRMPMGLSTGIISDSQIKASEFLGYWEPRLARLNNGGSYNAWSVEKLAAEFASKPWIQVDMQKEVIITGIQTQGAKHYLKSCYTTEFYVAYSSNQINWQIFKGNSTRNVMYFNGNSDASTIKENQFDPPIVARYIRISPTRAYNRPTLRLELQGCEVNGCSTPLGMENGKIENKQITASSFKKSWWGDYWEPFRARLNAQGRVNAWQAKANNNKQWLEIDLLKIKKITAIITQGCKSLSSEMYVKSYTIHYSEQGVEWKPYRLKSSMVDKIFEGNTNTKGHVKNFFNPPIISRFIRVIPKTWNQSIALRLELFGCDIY
measure: Kd (nM)
Answers are plain numbers, in nM.

What value of Kd has been recorded for this entry: Mut1 (structured_RNA, all C and U 2'-fluoro) RNA: GGACUUGGAUAACCUCACCGCAAUGGCGGAGGGUCAGACGACUCGCUGAGGAUCCGAG
359
